# efflux ratio at 2.5 h, 2 µM annotations
# System: MDR1 (P-gp)
# procedure-details: MDR1-MDCK II cell model of bidirectional permeability
# Format: in vitro ADME
# assay-context: dog, Efflux Ratio = Papp (B-A) / Papp (A-B), read-out: ER ratio
Respond using a number only.

In the examples that follow, each entry is paired with its recorded efflux ratio at 2.5 h, 2 µM.
{"columns": ["given-smiles", "efflux ratio at 2.5 h, 2 µM"],
 "data": [
  ["CNC(=O)c1ccc(N2CCN(Cc3ccc4c(c3F)NC(=O)N3C[C@@H](C)N=C43)CC2)c(F)n1", 2.1],
  ["CNC(=O)c1ccc(N2CCN(Cc3ccc4c(c3F)NC(=O)N3C[C@@H](C)N=C43)CC2)c(Cl)n1", 1.64]
]}

Field: next compound
Which efflux ratio at 2.5 h, 2 µM is listed for `CNC(=O)c1ccc(N2CCN(Cc3ccc4nc(C)c(=O)[nH]c4c3F)CC2)c(F)n1` ?
1

###

# half-life annotations
# procedure-details: Preliminary pharmacokinetic test in mice
# Format: in vivo
# assay-context: male, ICR, po; mouse plasma, p.o. 5 mg/kg
Express your answer as a number followed by its unit.

In the examples that follow, each entry is paired with its recorded half-life.
{"columns": ["given-smiles", "result"],
 "data": [
  ["CNC(=O)c1ccc(N2CCN(Cc3ccc4c(c3F)NC(=O)N3C[C@@H](C)N=C43)CC2)c(F)n1", "4.4 h"],
  ["CNC(=O)c1ccc(N2CCN(Cc3ccc4c(c3F)NC(=O)N3CCCN=C43)CC2)c(Cl)n1", "2.5 h"],
  ["CNC(=O)c1ccc(N2CCN(Cc3ccc4c(c3F)NC(=O)N3CCCN=C43)CC2)c(F)n1", "3.2 h"],
  ["CNC(=O)c1ccc(N2CCN(Cc3ccc4c(c3F)NC(=O)N3C[C@@H](C)N=C43)CC2)c(Cl)n1", "2.3 h"],
  ["CNC(=O)c1ccc(N2CCN(Cc3ccc4c(c3F)NC(=O)N3CC5(CC5)N=C43)CC2)c(Cl)n1", "1 h"]
]}

Which half-life is listed for `CNC(=O)c1ccc(N2CCN(Cc3ccc4c(c3F)NC(=O)N3CC(F)(F)CN=C43)CC2)c(C)n1` ?
0.9 h

###

# target-desc: Recombinant human PARP1 protein (Homo sapiens, UniProt P09874)
# Sequence (P09874 whole entry): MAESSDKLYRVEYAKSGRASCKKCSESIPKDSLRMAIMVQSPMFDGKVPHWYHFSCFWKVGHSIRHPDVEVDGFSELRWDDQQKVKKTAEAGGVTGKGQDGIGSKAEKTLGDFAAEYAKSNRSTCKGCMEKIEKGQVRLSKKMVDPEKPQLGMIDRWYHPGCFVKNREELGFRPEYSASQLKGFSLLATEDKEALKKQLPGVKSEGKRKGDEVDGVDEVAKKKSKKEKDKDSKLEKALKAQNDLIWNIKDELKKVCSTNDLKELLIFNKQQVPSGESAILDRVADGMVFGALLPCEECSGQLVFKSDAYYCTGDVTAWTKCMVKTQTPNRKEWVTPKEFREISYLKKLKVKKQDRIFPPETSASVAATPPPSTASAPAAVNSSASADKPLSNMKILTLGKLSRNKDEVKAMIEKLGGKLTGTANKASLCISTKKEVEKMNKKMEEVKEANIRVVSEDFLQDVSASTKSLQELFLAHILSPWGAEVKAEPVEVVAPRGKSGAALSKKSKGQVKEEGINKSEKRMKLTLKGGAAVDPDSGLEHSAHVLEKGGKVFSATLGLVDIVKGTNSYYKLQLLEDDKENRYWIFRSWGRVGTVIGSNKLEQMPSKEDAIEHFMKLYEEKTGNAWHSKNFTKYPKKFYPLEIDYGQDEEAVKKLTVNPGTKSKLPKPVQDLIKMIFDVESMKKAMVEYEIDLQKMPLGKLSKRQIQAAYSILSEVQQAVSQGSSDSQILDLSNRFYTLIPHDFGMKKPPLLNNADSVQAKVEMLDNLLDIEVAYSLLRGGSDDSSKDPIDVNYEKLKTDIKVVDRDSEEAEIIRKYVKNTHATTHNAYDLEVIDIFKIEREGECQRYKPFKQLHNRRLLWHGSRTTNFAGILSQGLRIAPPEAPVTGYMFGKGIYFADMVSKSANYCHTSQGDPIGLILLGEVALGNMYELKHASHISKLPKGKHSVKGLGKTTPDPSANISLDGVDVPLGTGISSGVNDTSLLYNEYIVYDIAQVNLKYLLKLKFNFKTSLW
# procedure-details: biochemical
# IC50 annotations
# unit: nM | format: bare number

In the examples that follow, each entry is paired with its recorded IC50.
{"columns": ["compound", "target-desc", "IC50, nM"],
 "data": [
  ["CNC(=O)c1ccc(N2CCN(Cc3ccc4c(c3)NC(=O)N3CCCN=C43)CC2)c(Cl)n1", "Recombinant human PARP1 protein (Homo sapiens, UniProt P09874)", 0.9],
  ["CNC(=O)c1ccc(N2CCN(Cc3ccc4c(c3F)NC(=O)N3CC[C@H](C)N=C43)CC2)c(F)n1", "Recombinant human PARP1 protein (Homo sapiens, UniProt P09874)", 5.6],
  ["CNC(=O)c1ccc(N2CCN(Cc3ccc4c(c3C)NC(=O)N3CCN=C43)CC2)c(F)n1", "Recombinant human PARP1 protein (Homo sapiens, UniProt P09874)", 7.3],
  ["CNC(=O)c1ccc(N2CCN(C(C)c3ccc4c(c3)[nH]c(=O)c3cccn34)CC2)cn1 (centres unmarked)", "Recombinant human PARP1 protein (Homo sapiens, UniProt P09874)", 0.42]
]}

Which IC50 is listed for `CNC(=O)c1ccc(N2CCN(Cc3ccc4c(c3F)NC(=O)N3C[C@@H](C)N=C43)CC2)c(Cl)n1` ?
1.6

###

# target-desc: Recombinant human PARP1 protein (Homo sapiens, UniProt P09874)
# procedure-details: biochemical
property-measured: IC50 (nM)
# unit: nM | format: bare number

{"columns": ["given-smiles", "numeric-result"],
 "data": [
  ["Cc1nc(C(=O)NC2CC2)ccc1N1CCN(Cc2ccc3c(c2F)NC(=O)N2CCN=C32)CC1", 3.4],
  ["C[C@@H]1CN2C(=O)Nc3c(ccc(CN4CCN(c5ccc(C(=O)NC6CC6)nc5Cl)CC4)c3F)C2=N1", 1.2],
  ["CNC(=O)c1ccc(N2CCN(Cc3ccc4c(c3F)NC(=O)N3C4=NC[C@@H]3C)CC2)c(C)n1", 1.46],
  ["CCNC(=O)c1ccc(N2CCN(Cc3ccc4c(c3F)NC(=O)N3CC(F)(F)CN=C43)CC2)c(F)n1", 0.58]
]}

Which IC50 is listed for `CNC(=O)c1ccc(N2CCN(Cc3ccc4c(c3)[nH]c(=O)c3nc(C)oc34)CC2)c(F)n1` ?
1

###

# target-desc: Recombinant human PARP1 protein (Homo sapiens, UniProt P09874)
# procedure-details: biochemical
# pIC50 annotations
Hey, just a heads up that pIC50 is the negative log base 10 of the concentration in molar.

In the examples that follow, each entry is paired with its recorded pIC50.
{"columns": ["given-smiles", "property-measured", "numeric-result"],
 "data": [
  ["CNC(=O)c1ccc(N2CCN(Cc3ccc4c(c3F)NC(=O)N3CCCN=C43)CC2)c(Cl)n1", "pIC50", 8.89],
  ["O=C(NC1CC1)c1ccc(N2CCN(Cc3ccc4c(c3F)NC(=O)N3CCCN=C43)CC2)c(Cl)n1", "pIC50", 8.80],
  ["CNC(=O)c1ccc(N2CCN(Cc3ccc4c(c3F)NC(=O)N3C4=NC[C@@H]3C)CC2)c(Cl)n1", "pIC50", 8.72]
]}

Field: next compound
Observed pIC50 on Recombinant human PARP1 protein (Homo sapiens, UniProt P09874) for `CNC(=O)c1ccc(N2CCN(Cc3ccc4c(c3F)NC(=O)N3CC5(CC5)N=C43)CC2)c(C)n1` , please.
9.30

###

# IC50 annotations
# target-desc: recombinant human PARP2 protein (Homo sapiens, UniProt Q9UGN5)
# Construct: purchased BPS 80502
# Sequence (Q9UGN5 whole entry): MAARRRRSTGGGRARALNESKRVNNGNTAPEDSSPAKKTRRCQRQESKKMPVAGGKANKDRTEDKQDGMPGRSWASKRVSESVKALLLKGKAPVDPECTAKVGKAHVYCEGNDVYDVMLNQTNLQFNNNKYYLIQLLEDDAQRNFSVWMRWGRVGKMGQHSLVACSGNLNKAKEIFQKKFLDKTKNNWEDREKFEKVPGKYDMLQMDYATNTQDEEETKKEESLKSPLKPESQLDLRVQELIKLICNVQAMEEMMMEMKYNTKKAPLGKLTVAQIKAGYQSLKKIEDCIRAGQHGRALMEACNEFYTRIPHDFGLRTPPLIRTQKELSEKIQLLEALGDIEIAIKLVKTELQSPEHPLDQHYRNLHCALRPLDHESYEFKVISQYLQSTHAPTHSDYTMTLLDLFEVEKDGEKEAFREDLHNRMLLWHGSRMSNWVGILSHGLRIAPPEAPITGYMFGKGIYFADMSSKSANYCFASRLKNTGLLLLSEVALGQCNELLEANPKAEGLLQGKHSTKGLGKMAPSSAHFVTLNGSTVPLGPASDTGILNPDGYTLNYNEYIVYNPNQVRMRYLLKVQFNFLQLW
# procedure-details: PARP2 enzymatic inhibitory activity, histone substrate, chemiluminescent ELISA
# Format: biochemical
# assay-context: histone substrate, 500 µM NAD+ not added; read-out: PARP2 IC50
# unit: nM | format: bare number

In the examples that follow, each entry is paired with its recorded IC50.
{"columns": ["molecule", "target-desc", "numeric-result"],
 "data": [
  ["CNC(=O)c1ccc(N2CCN(Cc3ccc4c(c3F)NC(=O)N3C4=NC[C@@H]3C)CC2)c(C)n1 [Compound 155]", "recombinant human PARP2 protein (Homo sapiens, UniProt Q9UGN5)", 893],
  ["CNC(=O)c1ccc(N2CCN(Cc3ccc4c(c3)NC(=O)N3CCCN=C43)CC2)c(Cl)n1 [Compound 191]", "recombinant human PARP2 protein (Homo sapiens, UniProt Q9UGN5)", 296]
]}

Which IC50 is listed for CCNC(=O)c1ccc(N2CCN(Cc3ccc4c(c3F)NC(=O)N3C[C@@H](C)N=C43)CC2)c(Cl)n1 [Compound 185] ?
894

###

# target-desc: Recombinant human PARP1 protein (Homo sapiens)
# procedure-details: PARP1 enzymatic inhibitory activity, histone substrate, chemiluminescent ELISA
# assay-context: PARP2 IC50 over PARP1 IC50
property-measured: PARP1/2 Fold selectivity

In the examples that follow, each entry is paired with its recorded PARP1/2 Fold selectivity.
{"columns": ["compound", "PARP1/2 Fold selectivity"],
 "data": [
  ["CNC(=O)c1ccc(N2CCN(Cc3ccc4c([nH]c(=O)c5ccnn54)c3F)CC2)c(Cl)n1", 1626.3],
  ["CNC(=O)c1ccc(N2CCN(Cc3ccc4c(c3F)NC(=O)N3CC[C@H](C)N=C43)CC2)c(F)n1", ">1756"],
  ["CNC(=O)c1ccc(N2CCN(Cc3ccc4c(c3)[nH]c(=O)c3nc(C)sc34)CC2)c(F)n1", 922.1],
  ["CNC(=O)c1ccc(N2CCN(Cc3ccc4c(c3)NC(=O)N3CCN=C43)CC2)c(F)n1", 524.6]
]}

Observed PARP1/2 Fold selectivity on Recombinant human PARP1 protein (Homo sapiens) for `CNC(=O)c1ccc(N2CCN(Cc3ccc4c(c3F)NC(=O)N3C[C@@H](C)N=C43)CC2)c(F)n1` , please.
191.8

Observed PARP1/2 Fold selectivity on Recombinant human PARP1 protein (Homo sapiens) for `CNC(=O)c1ccc(N2CCN(Cc3ccc4c(c3F)NC(=O)N3C4=NC[C@@H]3C)CC2)c(F)n1` , please.
466.3

Observed PARP1/2 Fold selectivity on Recombinant human PARP1 protein (Homo sapiens) for CNC(=O)c1ccc(N2CCN(C(C)c3ccc4c([nH]c(=O)c5cccn54)c3F)CC2)c(F)n1 (stereo not shown) , please.
536.3

###

# target-desc: Recombinant human PARP1 protein (Homo sapiens)
# procedure-details: biochemical
property-measured: pIC50
Hey, just a heads up that pIC50 is the negative log base 10 of the concentration in molar.

In the examples that follow, each entry is paired with its recorded pIC50.
{"columns": ["molecule", "numeric-result"],
 "data": [
  ["CNC(=O)c1ccc(N2CCN(C(C)c3ccc4c(c3)[nH]c(=O)c3ccnn34)CC2)c(F)n1 (stereo not drawn)", 9.24],
  ["CNC(=O)c1ccc(N2CCN(C(C)c3ccc4c([nH]c(=O)c5cn(C)nc54)c3F)CC2)c(F)n1 (stereo not drawn)", 6.56],
  ["CNC(=O)c1ccc(N2CCN(Cc3ccc4c([nH]c(=O)c5sccc54)c3F)CC2)c(F)n1", 9.22],
  ["CNC(=O)c1ccc(C2CCN(Cc3ccc4c(c3F)NC(=O)N3C[C@@H](C)N=C43)CC2)c(Cl)n1", 8.66],
  ["CNC(=O)c1ccc(N2CCN(Cc3ccc4c(c3)[nH]c(=O)c3nc(C)sc34)CC2)c(F)n1", 9.05]
]}

Observed pIC50 on Recombinant human PARP1 protein (Homo sapiens) for `CNC(=O)c1ccc(O[C@H]2CN(Cc3ccc4c(c3F)NC(=O)N3C[C@@H](C)N=C43)[C@@H]2C)cn1` , please.
9.22

Observed pIC50 on Recombinant human PARP1 protein (Homo sapiens) for `CNC(=O)c1ccc(N2CCN(Cc3ccc4c(c3)NC(=O)N3C[C@@H](C)N=C43)CC2)c(Cl)n1` , please.
9.17

Observed pIC50 on Recombinant human PARP1 protein (Homo sapiens) for CNC(=O)c1ccc(N2CCN(C(C)c3ccc4c(c3)[nH]c(=O)c3cccn34)CC2)c(F)n1 (stereo not drawn) , please.
9.82

Observed pIC50 on Recombinant human PARP1 protein (Homo sapiens) for `CNC(=O)c1ccc(N2CCN(Cc3ccc4c(c3F)NC(=O)N3C[C@H](C)N=C43)CC2)c(Cl)n1` , please.
8.82

Observed pIC50 on Recombinant human PARP1 protein (Homo sapiens) for `CCNC(=O)c1ccc(N2CCN(Cc3ccc4c(c3F)NC(=O)N3C[C@@H](C)N=C43)CC2)c(F)n1` , please.
9.15

Observed pIC50 on Recombinant human PARP1 protein (Homo sapiens) for CC(c1ccc2c([nH]c(=O)c3ccnn32)c1F)N1CCN(c2ccc(C#N)cn2)CC1 (stereo not drawn) , please.
7.74

Observed pIC50 on Recombinant human PARP1 protein (Homo sapiens) for CNC(=O)c1ccc(N2CCN(C(C)c3ccc4c([nH]c(=O)c5cccn54)c3F)CC2)c(F)n1 (stereo not drawn) , please.
9.42

Observed pIC50 on Recombinant human PARP1 protein (Homo sapiens) for `CCNC(=O)c1ccc(N2CCN(Cc3ccc4c(c3F)NC(=O)N3CCCN=C43)CC2)c(C)n1` , please.
8.95

Hello, the source for this data is patent EP4617273A1, in case you need it.
